molecular target: NPR-3 (Caenorhabditis elegans); construct: expressed in transfected cells; host or cells: HEK293; experiment: IP accumulation assay, chimeric GαΔ6qi4myr, NPR-3; assay type: cell-based, C. elegans; conditions: 10 µM peptide, 1 h, HBSS + 20 mM LiCl; HEK293 receptor + GαΔ6qi4myr; HTRF IP-One; mean of >=3 independent experiments (Tables S5 and S8)
Sequence (P90745 whole entry): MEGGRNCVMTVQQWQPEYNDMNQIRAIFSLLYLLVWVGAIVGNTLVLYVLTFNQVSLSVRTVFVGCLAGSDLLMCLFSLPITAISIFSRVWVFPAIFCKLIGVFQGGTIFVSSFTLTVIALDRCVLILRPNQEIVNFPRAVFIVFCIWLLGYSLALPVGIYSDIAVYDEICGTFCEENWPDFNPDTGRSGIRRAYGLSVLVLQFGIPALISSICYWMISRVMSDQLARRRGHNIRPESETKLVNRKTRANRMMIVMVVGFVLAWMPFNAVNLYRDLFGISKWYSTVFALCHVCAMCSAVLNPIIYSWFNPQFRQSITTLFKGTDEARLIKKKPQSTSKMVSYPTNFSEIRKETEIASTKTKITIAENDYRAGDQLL
RECORDED ENDPOINT: IP accumulation with GαΔ6qi4myr, NPR-3

>  <SUBSTANCE>
ASPSFIRF-NH2 [FLP-4-2, C. elegans FMRFamide-like peptide, C-terminally amidated, synthesized by SPPS]

>  <IP accumulation with GαΔ6qi4myr, NPR-3>
1.05 x-fold of basal

$$$$
>  <SUBSTANCE>
NPENDTPFGTMRF-NH2 [FLP-3-4, C. elegans FMRFamide-like peptide, C-terminally amidated, synthesized by SPPS]

>  <IP accumulation with GαΔ6qi4myr, NPR-3>
0.91 x-fold of basal

$$$$
>  <SUBSTANCE>
AGSDPNFLRF-NH2 [FLP-1-2, C. elegans FMRFamide-like peptide, C-terminally amidated, synthesized by SPPS]

>  <IP accumulation with GαΔ6qi4myr, NPR-3>
0.93 x-fold of basal

$$$$

Here is another substance to look at.
stdin: Enter reported IP accumulation with GαΔ6qi4myr, NPR-3 observed with NPR-3 (Caenorhabditis elegans) for APKPKFIRF-NH2 [FLP-5-1, C. elegans FMRFamide-like peptide, C-terminally amidated, synthesized by SPPS]
stdout: 0.95 x-fold of basal
